# Test system: T-47D human breast cancer cells
# TEST PROTOCOL: Cell Titer-Glo growth inhibition, T-47D
# Type: cell-based
# CONDITION SUMMARY: T47D, T-47D, 72 h drug exposure, read-out: Mean IC50, single agent Palbociclib
METRIC: IC50

[Q] Fill in: IC50 of CC(=O)c1c(C)c2cnc(Nc3ccc(N4CCNCC4)cn3)nc2n(C2CCCC2)c1=O is ___
[A] > 10 µM

* * *

# Test system: MDA-MB-134-VI human breast cancer cells
# TEST PROTOCOL: Cell Titer-Glo growth inhibition, MDA-MB-134VI
# Assay type: cell-based
# CONDITION SUMMARY: MDA-MB-134VI, 72 h drug exposure, read-out: Mean IC50, single agent Palbociclib
METRIC: pIC50
Give bare numbers, as −log10 of the molar value.

[Q] Fill in: pIC50 of CC(=O)c1c(C)c2cnc(Nc3ccc(N4CCNCC4)cn3)nc2n(C2CCCC2)c1=O [Palbociclib] is ___
[A] 5.61
